Parameter Kb: see the listing below.
- target system: human recombinant prostanoid TP receptor (Homo sapiens)
- Construct: expressed in transfected cells
- Sequence (P21731 1-343): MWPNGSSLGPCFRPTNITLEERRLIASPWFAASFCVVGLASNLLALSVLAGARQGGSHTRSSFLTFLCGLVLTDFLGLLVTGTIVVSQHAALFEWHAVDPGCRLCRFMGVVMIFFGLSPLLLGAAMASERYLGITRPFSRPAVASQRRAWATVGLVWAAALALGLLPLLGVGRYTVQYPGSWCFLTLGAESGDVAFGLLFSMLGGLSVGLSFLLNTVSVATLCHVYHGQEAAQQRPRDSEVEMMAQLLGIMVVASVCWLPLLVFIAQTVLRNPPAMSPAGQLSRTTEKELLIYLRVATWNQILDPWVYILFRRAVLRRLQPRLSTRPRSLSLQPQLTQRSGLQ
- assay procedure: FLIPR Ca2+ signaling PG antagonist assay, TP receptor stable cell line
- Format: cell-based
- condition description: HEK-293 EBNA cells, standard agonist U-46619
All answers are understood in nM, so give the number only.

Worked examples, 3 compounds total:
CCC(C)(CC)COc1ccc(Br)cc1Cn1nc(C(=O)O)cc1C [Example 7] :: 11
Cc1cc(C(=O)NS(=O)(=O)c2ccccc2)nn1Cc1cc(Cl)ccc1OCc1ccc(Cl)cc1 [Example 5] :: 10
Cc1cc(C(=O)O)nn1Cc1cc(Br)ccc1OCC1CCC1 [Example 8] :: 8

Entry Cc1cc(C(=O)O)nn1Cc1cc(Br)ccc1OCC1(C(F)(F)F)CCC1 [Example 9] : reported Kb = ?
10

Entry COc1ccc(COc2ccc(Cl)cc2Cn2nc(C(=O)NS(=O)(=O)c3ccccc3)cc2C)cc1 [Example 4] : reported Kb = ?
2

Entry Cc1cc(C(=O)O)nn1Cc1cc(C(F)(F)F)ccc1OCC1CCCC1 [Example 3] : reported Kb = ?
1
